All figures here come from PubChem BioAssay (NCI).

- Test system: SF-268 CNS
- Method Summary: NCI-60 one-dose screen, 48 h (100 = growth as untreated, 0 = no growth, -100 = all killed)
- Experimental Context: 10 µM unless noted
The panel holds about 83,000 compounds, 20% with a hit somewhere; the sample as a whole holds those more often.
Below, each entry is listed with its recorded growth.
Please reply with the bare figure in % and do not write the unit itself.

Solved cases below.
Compound	growth (%)
Cn1c(/C=C(\C#N)c2ccccc2)nc2c(N3CCOCC3)nc(Cl)nc21	-66.2
CC(=O)Nc1nc2c(s1)CCc1c-2cn(S(=O)(=O)c2ccccc2)c1-c1ccccc1	71.4
O=C1c2cc(I)ccc2Oc2cc([N+](=O)[O-])ccc2N1c1ccc(Cl)cc1F	79.1
COC(=O)/C(CCC=C(C)C)=C1\[C@@H](OC(C)=O)C[C@@]2(C)[C@H]1CC(=O)[C@H]1[C@@]3(C)CC[C@H](NCc4ccccc4)[C@@H](C)[C@@H]3CC[C@@]12C	79.6
COc1cc(/C=C/C(=O)c2ccc(Nc3nc(NCCO)nc(N4CCOCC4)n3)cc2)cc(OC)c1OC	17.5
O=C1c2cc(Br)ccc2Oc2cc([N+](=O)[O-])ccc2N1c1ccc(I)cc1F	93.1

# input compound: COc1ccc(C2Nc3nc(OC)n(C)c(=O)c3N=C3c4ccccc4C(=O)C32)cc1 (stereo not drawn) ; wanted: its growth 81

For Cc1ccc2[nH]c(=O)cc(-n3nncc3Cn3c4ccccc4c4ccccc43)c2c1 then? 86.4

For c1ccc2c(c1)oc1cc3sccc3nc12 then? 97.5

For COc1cccc(C2=NN3C(C2)c2ccccc2OC3c2ccc(/C=C3\SC(=O)NC3=O)cc2)c1 (stereo not drawn) then? 94.6

For COc1ccc(-c2nocc2-c2cccs2)cc1 then? 101

For Nc1no[n+]([O-])c1-c1nnc2c(n1)-c1ccccc1C2=O then? 76.5

For O=C(O)CCC(=O)c1ccc(C2CCCCCC2)cc1 then? 97.5
